- SYSTEM: Bcl-2, P10415
- Sequence (P10415 1-217): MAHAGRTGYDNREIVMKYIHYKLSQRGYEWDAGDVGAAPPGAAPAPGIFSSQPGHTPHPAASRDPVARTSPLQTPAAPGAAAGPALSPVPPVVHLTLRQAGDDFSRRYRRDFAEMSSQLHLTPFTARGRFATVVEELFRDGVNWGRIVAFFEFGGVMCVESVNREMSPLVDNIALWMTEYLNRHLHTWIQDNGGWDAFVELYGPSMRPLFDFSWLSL
- ASSAY_NOTES: peptide SPOT array, c-Myc-tagged receptor at 1 uM or 100 nM, anti-c-Myc-Cy3
# SPOT signal as a fraction of Bim BH3's signal on the same receptor and array >= 0.06 gives Satisfied, anything below gives Not satisfied

{"BINDER": "VKVFGKAVQALSRISDEFWLDPSKKG [RAD9B]", "CATEGORY": "Satisfied"}
{"BINDER": "VFERCELARTLKRLGMDGYRGISLAN [LYZ]", "CATEGORY": "Satisfied"}
{"BINDER": "GFANHDVVEVLRNAGQVVHLTLVRRK [INADL]", "CATEGORY": "Satisfied"}
{"BINDER": "SSLSDGLPVHLANIADELTQKKKMFK [AGBL2]", "CATEGORY": "Satisfied"}
{"BINDER": "NKDGKSVSNRLRRLSDNCGGKVLSIT [KIAA0430]", "CATEGORY": "Satisfied"}
{"BINDER": "TSQTEGLSRLLRQHAEDLNSGPLSKL [FES]", "CATEGORY": "Not satisfied"}
{"BINDER": "FSSDAVTSRVLLNVGQEVIAVVEENK [MOV10L1]", "CATEGORY": "Not satisfied"}
{"BINDER": "DNHKKKTVKMLEYLGKDVLHGVFNYL [CASP5]", "CATEGORY": "Not satisfied"}
{"BINDER": "CQGDTVISECLQRFADSLQEVVNYHM", "CATEGORY": "Not satisfied"}
{"BINDER": "EEIIHKLAMQLRHIGDNIDHRMVRED [PXT1]", "CATEGORY": "Satisfied"}
{"BINDER": "TRELQELARKLQELADASENLLTENT [TXNDC11]", "CATEGORY": "Not satisfied"}
{"BINDER": "FMEKLDNGALLCQLAETMQEKFKESM [GAS2]", "CATEGORY": "Not satisfied"}
{"BINDER": "EVKQSMSSQSLDKAAEDMPEAEQDLE [APBA1]", "CATEGORY": "Not satisfied"}
